Data provenance is the supplement of paper PMC10567573.

B1: GOLPH3 (parent)
chain: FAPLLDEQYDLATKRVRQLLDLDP

Variants of: B1
Assay overview: protein stability index of a GFP-peptide fusion (GPS, HEK-293T) (PSI 1-6); higher = more stable;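 further: lentivirally expressed fusions sorted by FACS into six bins by GFP to DsRed ratio, PSI derived from sequencing read proportions per bin multiplied by bin number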
Stated conditions: c terminus: a fixed tail appended
Assay readout: protein stability index
Answer with a number only.

>  <Mutation descriptor>
Q8L

>  <protein stability index>
1.95

$$$$
>  <Mutation descriptor>
K14Y

>  <protein stability index>
1.97

$$$$
>  <Mutation descriptor>
P3Q

>  <protein stability index>
2.05

$$$$
>  <Mutation descriptor>
D6H

>  <protein stability index>
1.48

$$$$
>  <Mutation descriptor>
Q8P

>  <protein stability index>
1.74

$$$$

Recorded result, P3Y , protein stability index: 2.28

Recorded result, D23N , protein stability index: 2.85

Recorded result, D23T , protein stability index: 1.94

Recorded result, F1T , protein stability index: 4.11

Recorded result, D21E , protein stability index: 2.08

Recorded result, E7T , protein stability index: 1.86

Recorded result, L5A , protein stability index: 2.34

Recorded result, D23K , protein stability index: 1.78

Recorded result, Q18F , protein stability index: 2.67

Recorded result, F1N , protein stability index: 3.86

Recorded result, D21N , protein stability index: 2.12

Recorded result, L4S , protein stability index: 1.75

Recorded result, R17A , protein stability index: 2.37

Recorded result, L4R , protein stability index: 1.43

Recorded result, R15H , protein stability index: 2.04

Recorded result, L22Q , protein stability index: 2.5
